# TEST TARGET: EGFR L858R (H3255 cells) (Homo sapiens, UniProt P00533, L858R)
# Construct: host or cells: H3255
# Sequence (P00533 25-1210 L858R): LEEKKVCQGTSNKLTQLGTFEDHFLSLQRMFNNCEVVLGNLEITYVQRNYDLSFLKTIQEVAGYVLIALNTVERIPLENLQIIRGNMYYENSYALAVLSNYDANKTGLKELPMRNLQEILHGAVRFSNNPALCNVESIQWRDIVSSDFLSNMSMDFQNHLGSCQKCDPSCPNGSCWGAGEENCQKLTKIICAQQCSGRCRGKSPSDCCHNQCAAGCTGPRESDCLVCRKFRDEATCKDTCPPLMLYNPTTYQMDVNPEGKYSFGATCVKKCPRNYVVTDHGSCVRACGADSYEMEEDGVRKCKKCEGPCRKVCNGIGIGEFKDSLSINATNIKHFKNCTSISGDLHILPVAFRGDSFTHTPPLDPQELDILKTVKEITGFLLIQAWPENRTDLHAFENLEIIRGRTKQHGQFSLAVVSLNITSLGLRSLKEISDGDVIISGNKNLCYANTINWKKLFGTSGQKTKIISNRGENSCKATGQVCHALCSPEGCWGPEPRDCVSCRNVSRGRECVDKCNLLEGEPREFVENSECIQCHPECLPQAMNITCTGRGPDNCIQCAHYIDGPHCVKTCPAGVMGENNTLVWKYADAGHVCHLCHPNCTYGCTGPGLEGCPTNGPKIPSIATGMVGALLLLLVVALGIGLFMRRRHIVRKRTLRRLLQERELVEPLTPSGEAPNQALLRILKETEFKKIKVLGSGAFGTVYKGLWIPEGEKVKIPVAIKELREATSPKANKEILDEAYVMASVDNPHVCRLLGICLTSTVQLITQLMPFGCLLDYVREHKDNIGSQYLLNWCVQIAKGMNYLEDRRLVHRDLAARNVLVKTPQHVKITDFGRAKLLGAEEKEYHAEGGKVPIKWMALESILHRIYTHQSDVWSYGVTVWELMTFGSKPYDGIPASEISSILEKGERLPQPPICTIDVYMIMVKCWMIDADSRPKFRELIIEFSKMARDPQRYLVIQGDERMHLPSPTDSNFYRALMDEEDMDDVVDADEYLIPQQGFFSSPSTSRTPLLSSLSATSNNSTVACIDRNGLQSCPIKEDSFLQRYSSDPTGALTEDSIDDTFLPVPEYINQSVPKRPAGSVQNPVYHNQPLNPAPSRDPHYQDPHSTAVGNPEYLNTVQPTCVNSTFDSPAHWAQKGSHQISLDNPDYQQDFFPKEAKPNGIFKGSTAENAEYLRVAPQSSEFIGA
# ASSAY NOTES: Inhibition of EGFR autophosphorylation (p-EGFR Y1068, western blot) in H3255 cells
# Format: cell-based
# PROTOCOL CONDITIONS: 3 h incubation, densitometry of western blots
pIC50: −log10 of the molar value.
REPORTED PROPERTY: pIC50

MOLECULE: CCOc1cc2ncc(C#N)c(Nc3ccc(F)c(Cl)c3)c2cc1NC(=O)/C=C/CNCc1cn([C@@H]2OC(CO)[C@@H](O)C(O)C2F)nn1 (stereo partly shown) [FED20]
QUANTITATIVE RESULT: 6.52
